# ASSAYED_SYSTEM: T1, SF3A1-UBL K765A (human, UniProt Q15459 704-793, K765A)
# T1 sequence: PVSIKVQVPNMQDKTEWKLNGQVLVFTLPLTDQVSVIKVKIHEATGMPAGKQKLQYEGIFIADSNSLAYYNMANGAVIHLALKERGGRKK
# METHOD_SUMMARY: SPR
MEASUREMENT_TYPE: pKd
Would you please state pKd, meaning minus log10 of the concentration in mol/L, as a bare number?

Qu. Return reported pKd; argument: GGGGACUGCGUUCGCGCUUUCCCC (structured_RNA) [Biotin-U1-SL4-WT]
Ans. 5.10
